- experimental-details: Ferric reducing antioxidant power (FRAP) assay
- experimental-conditions: 700 nm
Reported EC50 is given for each of the following molecules.

molecule	EC50 / µM
O=C(C=Cc1ccc(O)c(O)c1)OC1C(O)CC(O)(C(=O)O)CC1O (stereo not shown)	1290
O=c1c(O[C@@H]2O[C@H](CO)[C@@H](O)[C@H](O)[C@H]2O)c(-c2ccc(O)c(O)c2)oc2cc(O)cc(O)c12 [Quercetin 3-β-D-glucoside, quercetin 3-β-D-glucoside]	1780
O=C(O)c1cc(O)c(O)c(O)c1 [Gallic acid, reference compound]	1240
C[C@@H]1O[C@@H](OC[C@H]2O[C@@H](Oc3c(-c4ccc(O)c(O)c4)oc4cc(O)cc(O)c4c3=O)[C@H](O)[C@@H](O)[C@@H]2O)[C@H](O)[C@H](O)[C@H]1O [Rutin, quercetin-3-rutinoside]	1940

Cited source for all entries: paper PMC12467246
